Tested on: Amaranthus retroflexus (redroot pigweed)
test-protocol: Example B2: herbicidal action post emergence, 500 g/ha
Type: in vivo
test-context: applied to the foliage, 13 days after application, 0 is no damage to plants, 100 is plants completely dead
readout-label: AMARE, visual assessment of the herbicidal effect (%)
Could you give me the number in %? Just the number is fine.

Input line: Fill blank: measured AMARE, visual assessment of the herbicidal effect of the compound Cn1nc(C(F)(F)F)c(C[S+]([O-])c2ncc(Br)s2)c1OCC(F)F (racemic) is ____.
Output line: 80

Input line: Form field: reported AMARE, visual assessment of the herbicidal effect of Cn1nc(C(F)(F)F)c(C[S+]([O-])c2ncc(Cl)s2)c1OCC(F)(F)F (racemic)
Output line: 70

Input line: Returns the measured AMARE, visual assessment of the herbicidal effect for the input compound. Input: `Cn1nc(C(F)(F)F)c(C(F)(F)S(=O)(=O)c2ncc(Cl)s2)c1OCC(F)(F)F`
Output line: 95

Input line: Please give the measured AMARE, visual assessment of the herbicidal effect for this compound: `Cn1nc(C(F)(F)F)c(CS(=O)(=O)c2ncc(Br)s2)c1Cl`
Output line: 30

Input line: Reported AMARE, visual assessment of the herbicidal effect, compound CCOc1c(C[S+]([O-])c2ncc(Br)s2)c(C(F)(F)F)nn1C (racemic) : ____
Output line: 70

Input line: Item `Cn1nc(C(F)(F)F)c(CS(=O)(=O)c2ncc(Br)s2)c1OCC(F)F` has what recorded AMARE, visual assessment of the herbicidal effect?
Output line: 60

Input line: Form field: reported AMARE, visual assessment of the herbicidal effect of `Cn1nc(C(F)(F)F)c(CSc2ncc(Cl)s2)c1OC(F)F`
Output line: 70

Input line: Could you share which AMARE, visual assessment of the herbicidal effect value was measured for Cn1nc(C(F)(F)F)c(C[S+]([O-])c2ncc(Br)s2)c1Cl (racemic) ?
Output line: 80

Input line: Name the recorded AMARE, visual assessment of the herbicidal effect for `Cn1nc(C(F)(F)F)c(CSc2ncc(Cl)s2)c1OCC(F)(F)F` .
Output line: 60

Input line: Look at this compound and give its reported AMARE, visual assessment of the herbicidal effect. `Cn1nc(C(F)(F)F)c(CSc2ncc([N+](=O)[O-])s2)c1OCC(F)(F)F`
Output line: 40

Input line: Which measured AMARE, visual assessment of the herbicidal effect value corresponds to `CCOc1c(CS(=O)(=O)c2ncc(Br)s2)c(C(F)(F)F)nn1C` ?
Output line: 80

Input line: Quick one: AMARE, visual assessment of the herbicidal effect for Cn1nc(C(F)(F)F)c(C[S+]([O-])c2ncc(Cl)s2)c1OC(F)F (racemic) ?
Output line: 100

Input line: Name the recorded AMARE, visual assessment of the herbicidal effect for Cn1nc(C(F)(F)F)c(C[S+]([O-])c2ncc(Br)s2)c1OCC(F)(F)F (centres unmarked) .
Output line: 95

Input line: What does the record list as AMARE, visual assessment of the herbicidal effect for `Cn1nc(C(F)(F)F)c(CSc2ncc(Br)s2)c1OCC(F)(F)F` ?
Output line: 80

Input line: Which AMARE, visual assessment of the herbicidal effect is reported for this compound? CC(c1c(C(F)(F)F)nn(C)c1OCC(F)(F)F)S(=O)(=O)c1ncc(Cl)s1 (racemic)
Output line: 80

Input line: Please give the measured AMARE, visual assessment of the herbicidal effect for this compound: `Cn1nc(C(F)(F)F)c(CS(=O)(=O)c2ncc(Cl)s2)c1OC(F)F`
Output line: 80

Input line: # query: AMARE, visual assessment of the herbicidal effect of entry COCCOc1c(C[S+]([O-])c2ncc(Cl)s2)c(C(F)(F)F)nn1C (racemic)
Output line: 70

Input line: For `Cn1nc(C(F)(F)F)c(CSc2ncc(Br)s2)c1Cl` , what is its reported AMARE, visual assessment of the herbicidal effect?
Output line: 70

Input line: Sample `COCCOc1c(CS(=O)(=O)c2ncc(Cl)s2)c(C(F)(F)F)nn1C` — what was its AMARE, visual assessment of the herbicidal effect?
Output line: 50

Input line: I would be grateful if you could share the reported AMARE, visual assessment of the herbicidal effect for Cn1nc(C(F)(F)F)c(C[S+]([O-])c2ncc(Cl)s2)c1Cl (racemic) .
Output line: 70
